# assay summary: Cytotoxicity against mouse RAW264.7 cells assessed as cell viability at 128 ug/ml after 24 hrs by MTT assay relative to control
# Assay type: cell-based
# test parameters: read-out: Activity
metric: viability at 24 h, 128 ug/ml

Fill in the blank: the reported viability at 24 h, 128 ug/ml of OC(Cn1cncn1)Cn1c2ccc(Cl)cc2c2cc(Cl)ccc21 (stereo unspecified) is ____.
> 80%

* * *

# Tested on: Escherichia coli
# assay summary: Antimicrobial activity against Escherichia coli after 24 hrs by two-fold serial dilution method
# Format: functional, organism-based
Calls of active or inactive are those of the source. No cut-off for these calls is given here.
Give your call using only these classes: 1 (active), -1 (inactive)

Worked examples follow.
1) OC(Cn1cncn1)Cn1c2ccc(Cl)cc2c2cc(Cl)ccc21 (stereo unspecified)	1
2) CC(C)(C)c1ccc2c(c1)c1cc(C(C)(C)C)ccc1n2CC(O)Cn1cncn1 (stereo unspecified)	1
3) OC(Cn1ccnc1-c1ccccc1)Cn1c2ccccc2c2ccccc21 (stereo unspecified)	-1
4) Cc1ncc([N+](=O)[O-])n1CC(O)Cn1c2ccccc2c2ccccc21 (stereo unspecified)	1
5) OC(Cn1cncn1)Cn1c2ccccc2c2cc(I)ccc21 (stereo unspecified)	1

Let us examine a further case.
// return assay outcome for OC(Cn1cncn1)Cn1c2ccccc2c2ccc(Br)cc21 (stereo unspecified)
1
